Target: UniProtKB P33981
Sequence (P33981 1-857): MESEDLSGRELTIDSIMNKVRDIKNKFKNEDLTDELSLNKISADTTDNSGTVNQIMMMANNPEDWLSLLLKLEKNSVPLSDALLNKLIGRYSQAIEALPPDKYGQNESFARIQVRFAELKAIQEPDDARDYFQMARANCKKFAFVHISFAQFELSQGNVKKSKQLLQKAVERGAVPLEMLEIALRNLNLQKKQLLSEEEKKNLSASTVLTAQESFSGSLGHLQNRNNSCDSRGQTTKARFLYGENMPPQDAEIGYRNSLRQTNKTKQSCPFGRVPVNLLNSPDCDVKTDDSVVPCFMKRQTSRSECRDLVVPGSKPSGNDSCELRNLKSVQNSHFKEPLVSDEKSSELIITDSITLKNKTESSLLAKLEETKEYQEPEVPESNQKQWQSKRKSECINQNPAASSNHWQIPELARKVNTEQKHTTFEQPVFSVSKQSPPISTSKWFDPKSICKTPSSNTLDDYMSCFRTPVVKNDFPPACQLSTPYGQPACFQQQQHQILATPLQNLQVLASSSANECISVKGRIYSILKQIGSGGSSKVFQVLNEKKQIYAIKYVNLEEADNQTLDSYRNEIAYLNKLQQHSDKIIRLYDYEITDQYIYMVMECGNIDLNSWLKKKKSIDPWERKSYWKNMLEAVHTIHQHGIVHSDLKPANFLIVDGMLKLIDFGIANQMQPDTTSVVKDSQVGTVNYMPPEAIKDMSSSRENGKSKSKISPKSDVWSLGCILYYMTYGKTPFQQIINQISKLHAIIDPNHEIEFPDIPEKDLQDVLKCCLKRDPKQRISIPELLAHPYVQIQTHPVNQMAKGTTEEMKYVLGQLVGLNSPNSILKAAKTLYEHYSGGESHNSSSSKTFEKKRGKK
Test: TTK assay: screening of TTK kinase activity suppressing action using p38 MAPK peptide
Type: biochemical
Conditions: p38 MAPK peptide substrate; read-out: TTK IC50
endpoint.name: IC50 (nM)

compound: O=C(NC1CC1)c1ccc(-c2cnc3c(NCC4CCOCC4)cc(NC45CC6CC(CC(C6)C4)C5)nn23)cc1
measurement.unit: nM
IC50: 1.9
--
compound: O=C(NC1CC1)c1ccc(-c2cnc3c(NCC4CCOCC4)cc(NCC(F)(F)F)nn23)cc1
measurement.unit: nM
IC50: 11.9
--
compound: C[C@@H]1CN(c2cc(NCC3CCOCC3)c3ncc(-c4ccc(C(=O)NC5CC5)cc4)n3n2)C[C@H](C)O1
measurement.unit: nM
IC50: 10.1

A. CC(C)ONc1cc(NC2CCCCC2)nn2c(-c3ccc(C(=O)NC4CC4)cc3)cnc12
B. O=C(NC1CC1)c1ccc(-c2cnc3c(NCC4CCOCC4)cc(N4CCC(C(F)(F)F)CC4)nn23)cc1
C. O=C(NC1CC1)c1ccc(-c2cnc3c(NCC(F)(F)F)cc(NC4CCCCC4)nn23)cc1
D. O=C(NC1CC1)c1ccc(-c2cnc3c(NCC4CCOCC4)cc(N4CCOCC4)nn23)cc1
Ask: Sort (4 compounds) by IC50: min first. Kindly provide the labels arranged according to the requested ordering.
Reply: C, A, D, B
(C: 3 nM, A: 5.6 nM, D: 9.3 nM, B: 13.4 nM)

I. O=C(NC1CC1)c1ccc(-c2cnc3c(NCC4CCOCC4)cc(NC4CCC(F)(F)CC4)nn23)cc1
II. O=C(NC1CC1)c1ccc(-c2cnc3c(NCC4CCOCC4)cc(N4CCCCS4(=O)=O)nn23)cc1
Ask: # min-compare on IC50 between I and II // return label of chosen record
Reply: I

P. NC(=O)c1ccc(-c2cc(NCC3CCOCC3)c3ncc(-c4ccc(C(=O)NC5CC5)cc4)n3n2)cc1
Q. CCC(C)(C)Nc1cc(NCC2CCOCC2)c2ncc(-c3ccc(C(=O)NC4CC4)cc3)n2n1
R. NC1CCCCC1Nc1cc(NCC2CCOCC2)c2ncc(-c3ccc(C(=O)NC4CC4)cc3)n2n1 (stereo not drawn)
Ask: Exam item: list the entries in increasing order of IC50. I'd appreciate it if you listed the labels in the requested order.
Reply: Q, P, R
(Q: 2.9 nM, P: 4.5 nM, R: 9.4 nM)

I. O=C(NC1CC1)c1ccc(-c2cnc3c(NCC4CCOCC4)cc(NC4CCCOC4)nn23)cc1 (stereo not drawn)
II. O=C(NC1CC1)c1ccc(-c2cnc3c(NCC4CCOCC4)cc(Oc4ccccc4C(F)(F)F)nn23)cc1
III. COc1ccc(Oc2cc(NCC3CCOCC3)c3ncc(-c4ccc(C(=O)NC5CC5)cc4)n3n2)c(F)c1
Ask: Arrange the 3 entries by IC50 so the values rise. I would appreciate it if you listed the labels in the requested order.
Reply: III, I, II

----------
Biological target: TTK (Homo sapiens, UniProt P33981)
Assay: TTK assay: screening of TTK kinase activity suppressing action using p38 MAPK peptide
Format: biochemical
Settings: p38 MAPK peptide substrate; read-out: TTK IC50
pIC50: −log10 of the molar value.
endpoint.name: pIC50

Consider the reported pIC50 for these compounds:
chem.smiles: N#Cc1ccc(-c2cn3c(-c4ccc(C(=O)NC5CC5)cc4)cnc3c(NCCN3CCOCC3)n2)cc1
val: 7.69
--
chem.smiles: O=C(NC1CC1)c1ccc(-c2cnc3c(NCC4CCOCC4)cc(NC(=O)C4CCCCC4)nn23)cc1
val: 7.35

I. N#Cc1ccc(-c2cn3c(-c4ccc(C(=O)NC5CC5)cc4)cnc3c(NCCOCCOCCO)n2)cc1
II. COCCCCNc1cc(NC2CCCCC2)nn2c(-c3ccc(C(=O)NC4CC4)cc3)cnc12
Ask: Please compare: I and II . Report which one has the smaller pIC50 value. Bench note: the answer is the label of the chosen record.
Reply: I
(I: 7.40, II: 8.26)

----------
System: A549
Experiment: A549 assay: screening of cancer cell growth inhibiting compound
Assay type: cell-based
Settings: Homo sapiens, 72 h; A549 cells, three days, WST-8; read-out: A549 IC50
Listing: IC50 of selected compounds

chem.smiles: CC(C)CNc1nc(-c2ccc(C(=O)NCCS(C)(=O)=O)cc2)cn2c(-c3ccc(C(=O)NC4CC4)cc3)cnc12
val: 1000 to 10000 nM

Ask: Look up IC50 for this compound: "CC(C)CNc1nc(C2=CCCC2)cn2c(-c3ccc(C(=O)NC4CC4)cc3)cnc12"
Reply: 1000 to 10000 nM

Ask: I would be grateful if you could share the reported IC50 for "CC(C)CNc1nc(-c2ccc(C(N)=O)cc2)cn2c(-c3ccc(C(=O)NC4CC4)cc3)cnc12" .
Reply: 50 to 500 nM

Ask: Which value of IC50 has been reported for "Cc1ccccc1Oc1cc(NCC2CCOCC2)c2ncc(-c3ccc(C(=O)NC4CC4)cc3)n2n1" in the records?
Reply: 50 to 500 nM

Ask: Query (compound): "N#Cc1ccc(-c2cn3c(-c4ccc(C(=O)NC5CC5)cc4)cnc3c(NCC3CCOCC3)n2)cc1F" ; field requested: IC50
Reply: 50 to 500 nM

Ask: What value of IC50 has been reported for the following compound? "CC(C)CNc1cc(NCC2CCOCC2)c2ncc(-c3ccc(C(=O)NC4CC4)cc3)n2n1"
Reply: 50 to 500 nM

Ask: Returns the measured IC50 for the input compound. Input: "O=C(NC1CC1)c1ccc(-c2cnc3c(NCC4CCOCC4)cc(Oc4cc(F)ccc4O)nn23)cc1"
Reply: ≤ 50 nM

Ask: Need IC50 of "O=C(NC1CC1)c1ccc(-c2cnc3c(NCC4CCOCC4)cc(NC4CC=CC4)nn23)cc1" , thanks.
Reply: 50 to 500 nM

Ask: Value lookup for IC50; key = "O=C(NC1CC1)c1ccc(-c2cnc3c(NCc4cccs4)cc(NC4CCCCC4)nn23)cc1"
Reply: 50 to 500 nM

Ask: Record request: IC50 value, item "CC(C)ONc1cc(NC2CCCCC2)nn2c(-c3ccc(C(=O)NC4CC4)cc3)cnc12"
Reply: 500 to 1000 nM

----------
Tested on: A549
Experiment: A549 assay: screening of cancer cell growth inhibiting compound
Type: cell-based
Conditions: Homo sapiens, 72 h; A549 cells, three days, WST-8; read-out: A549 IC50
pIC50: −log10 of the molar value.
Readings of pIC50 for the listed compounds

compound: Cc1nc(C)c(-c2cc(NCC(C)C)c3ncc(-c4ccc(C(=O)NC5CC5)cc4)n3n2)s1
endpoint.name: pIC50
val: 6.00 to 6.30
//
compound: CC(Nc1cc(NCC2CCOCC2)c2ncc(-c3ccc(C(=O)NC4CC4)cc3)n2n1)C(F)(F)F (stereo not drawn)
endpoint.name: pIC50
val: ≥ 7.30
//
compound: O=C(NC1CC1)c1ccc(-c2cnc3c(NCC45CCN(CC4)CC5)cc(NC4CCCCC4)nn23)cc1
endpoint.name: pIC50
val: 6.30 to 7.30

Ask: Need pIC50, item "CC(C)CNc1nc(CCc2ccc(C(=O)O)cc2)cn2c(-c3ccc(C(=O)NC4CC4)cc3)cnc12"
Reply: 6.30 to 7.30

Ask: Look up pIC50 for this compound: "N#CC1CCN(c2cc(NCC3CCOCC3)c3ncc(-c4ccc(C(=O)NC5CC5)cc4)n3n2)CC1"
Reply: 6.30 to 7.30

Ask: Any idea what pIC50 was measured for "CC(=O)N1CCC(CNc2cc(NC3CCCCC3)nn3c(-c4ccc(C(=O)NC5CC5)cc4)cnc23)CC1" ?
Reply: 6.30 to 7.30
